Catalogue of inhibition values
# SYSTEM NAME: Glycogen synthase kinase-3 alpha (Homo sapiens) (UniProt P49840);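 further: values are mean inhibition of GSK3A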
# Sequence (P49840 2-483 limits assumed): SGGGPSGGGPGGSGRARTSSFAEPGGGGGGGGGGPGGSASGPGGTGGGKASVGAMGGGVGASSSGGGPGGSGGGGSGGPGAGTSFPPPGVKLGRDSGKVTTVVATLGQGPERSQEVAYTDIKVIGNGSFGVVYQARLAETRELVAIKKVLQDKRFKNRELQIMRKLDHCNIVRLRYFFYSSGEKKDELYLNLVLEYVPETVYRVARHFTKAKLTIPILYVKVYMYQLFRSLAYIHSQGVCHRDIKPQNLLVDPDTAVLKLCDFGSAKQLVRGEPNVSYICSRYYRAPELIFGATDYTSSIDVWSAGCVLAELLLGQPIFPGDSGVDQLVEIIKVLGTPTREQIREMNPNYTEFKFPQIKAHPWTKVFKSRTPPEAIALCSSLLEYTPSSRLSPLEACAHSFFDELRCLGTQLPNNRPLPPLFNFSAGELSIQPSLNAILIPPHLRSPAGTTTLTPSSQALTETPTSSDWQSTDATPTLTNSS
# TEST SETTINGS: at 0.1 µM
PROPERTY: inhibition (%)

INSERT INTO results (smiles_data, system_name, units_symbol, measured_number) VALUES
  ('C[C@@H](Oc1cc(-n2cnc3ccc(OC[C@@H](O)CO)cc32)sc1C(N)=O)c1ccccc1Cl', 'Glycogen synthase kinase-3 alpha (Homo sapiens) (UniProt P49840)', '%', 0.1),
  ('COc1ccc(-c2nn3ncccc3c2-c2ccnc(Nc3cccc(C(F)(F)F)c3)n2)cc1', 'Glycogen synthase kinase-3 alpha (Homo sapiens) (UniProt P49840)', '%', 2.36),
  ('COC(=O)c1ccc2c(c1)C(=Cc1cc(Br)c(O)c(Br)c1)C(=O)N2', 'Glycogen synthase kinase-3 alpha (Homo sapiens) (UniProt P49840)', '%', 9.38),
  ('COc1cc(Nc2nccc(-c3cnn4ncccc34)n2)cc(OC)c1', 'Glycogen synthase kinase-3 alpha (Homo sapiens) (UniProt P49840)', '%', 49.7),
  ('NS(=O)(=O)c1ccc(-c2cc3ccncc3cc2OCc2ccccc2)cc1', 'Glycogen synthase kinase-3 alpha (Homo sapiens) (UniProt P49840)', '%', 2.45),
  ('FC(F)(F)c1ccc(-c2nn3ncccc3c2-c2ccnc(Nc3ccc4c(c3)OCCO4)n2)cc1', 'Glycogen synthase kinase-3 alpha (Homo sapiens) (UniProt P49840)', '%', 6.66),
  ('Cc1nc(-c2ccccc2)n2nc(NCCCN3CCOCC3)ncc12', 'Glycogen synthase kinase-3 alpha (Homo sapiens) (UniProt P49840)', '%', 5.02),
  ('CC(C)c1ccc2c(c1)NC(=O)/C2=N/Nc1ccc(S(N)(=O)=O)cc1', 'Glycogen synthase kinase-3 alpha (Homo sapiens) (UniProt P49840)', '%', 4.22),
  ('CS(=O)(=O)Nc1cccc(-c2ccc3c(NC(=O)C4CC4)n[nH]c3c2)c1', 'Glycogen synthase kinase-3 alpha (Homo sapiens) (UniProt P49840)', '%', 2.17),
  ('COC(=O)Nc1nc2cc(Oc3ccc(NC(=O)Nc4cccc(Br)c4)cc3)ccc2[nH]1', 'Glycogen synthase kinase-3 alpha (Homo sapiens) (UniProt P49840)', '%', 2.27);

###

# SYSTEM NAME: Protein-tyrosine kinase 6 (Homo sapiens)
# TEST SETTINGS: at 1 µM
# Description: GSK_PKIS: BRK mean inhibition at 1 uM [Nanosyn]
Assign classes using reported inhibition values and the ranges band 1 (below 5%), band 2 (5% to below 8%), band 3 (8% or more), please.

INSERT INTO measurements (smiles_data, assigned_class) VALUES
  ('N#Cc1cccc(Nc2nccc(-c3cnn4ncccc34)n2)c1', 'band 3'),
  ('CC(C)c1ccc(Nc2nccc(-c3cnn4ncccc34)n2)cc1', 'band 2'),
  ('Nc1ccc(C#Cc2cncnc2Nc2ccc(OCc3cccc(F)c3)c(Cl)c2)cc1', 'band 1'),
  ('COc1cccc(-n2ncc3c(N/N=C/c4ccc(C)cc4)ncnc32)c1', 'band 2'),
  ('COC(=O)c1ccc2c(c1)C(=Cc1cc(Br)c(O)c(Br)c1)C(=O)N2', 'band 2'),
  ('CCn1c(-c2nonc2N)nc2ccc(F)cc21', 'band 3'),
  ('CN(c1ccc(NC(=O)Nc2ccc(OC(F)(F)F)cc2)cc1)c1ccnc(Nc2cccc(S(N)(=O)=O)c2)n1', 'band 3'),
  ('O=C(Nc1ccc(Oc2ccc3[nH]c(NC(=O)c4ccco4)nc3c2)cc1)Nc1cc(C(F)(F)F)ccc1F', 'band 1'),
  ('COc1cc2ncnc(Nc3ccc4c(cnn4Cc4ccccc4)c3)c2cc1OC', 'band 3'),
  ('Cc1ccc2c(-c3ccnc(Nc4ccc5c(c4)OCCO5)n3)c(-c3ccc(C(F)(F)F)cc3)nn2n1', 'band 1');
